Exercise: for every item that follows, state its recorded TGI.
Test system: HOP-62 NSCLC
Assay: NCI tumour cell line growth inhibition, 48 h

TGI measured on COc1cc2oc3cc(=O)cc4oc(-c5ccccc5)cc(c2c2c1CCC(c1ccccc1)O2)c43 (stereo not drawn) = > 100 µM

TGI measured on CCCc1cc(=O)[nH]c(-n2nc(C)cc2C)n1 = > 100 µM

TGI measured on CCCNC(=O)CCC(C)C1CCC2C3C(C[C@H](OC(C)=O)[C@]12C)[C@@]1(C)CCC2(C[C@H]1C[C@H]3OC(C)=O)OOC1(CC[C@]3(C)C4C[C@H](OC(C)=O)[C@]5(C)C(C(C)CCC(=O)NCCC)CCC5C4[C@H](OC(C)=O)C[C@@H]3C1)OO2 (stereo partly drawn) = > 100 µM

---

Test system: 786-0 renal
Assay: NCI tumour cell line growth inhibition, 48 h
ENDPOINT LABEL: TGI

TGI measured on CN1c2ccccc2N(C(=O)c2ccc(Cl)cc2)C(CC(=O)O)c2cccn21 (stereo unspecified) = > 100 µM

TGI measured on Cc1cccc(N(C(=O)Nc2ccc(Cl)c(Cl)c2)C2=NCC(C)S2)c1 (stereo unspecified) = > 100 µM

TGI measured on OCC1C(/C=C/c2ccoc2)ON2CCCC12 (stereo unspecified) = > 100 µM

TGI measured on COC(=O)C1CN=CN1CCc1ccccc1 (stereo unspecified) = > 100 µM

TGI measured on CCOC(=O)c1c(N)sc2c1C(C)(C(=O)OCC)CC2 (stereo unspecified) = > 100 µM

TGI measured on Clc1ccc(N=Nc2nc3ccccc3nc2N=Nc2ccc(Cl)cc2Cl)c(Cl)c1 = > 100 µM

---

System: M14 melanoma
Assay: NCI tumour cell line growth inhibition, 48 h
ENDPOINT LABEL: TGI

TGI measured on COC(=O)CC1NC(=O)[C@@H]1C(C)O (stereo partly specified) = > 100 µM

TGI measured on O=C(OCN1C(=O)C2C3C=CC(C2C1=O)C1C2C(=O)N(COC(=O)C4CCCN4)C(=O)C2C31)C1CCCN1 (stereo unspecified) = > 100 µM

TGI measured on COc1cccc(-n2nc(C)c3c(N/N=C(\C)c4ccncc4)ncnc32)c1 = > 25 µM

TGI measured on S=C1N(/N=C/c2c3ccccc3cc3ccccc23)C(=Nc2ccccc2)C(=Nc2ccccc2)N1c1ccccc1 = > 100 µM

TGI measured on C=CCNC(=O)N(CCCC(NC(C)=O)C(=O)NCc1ccccc1)Cc1ccccc1 (stereo unspecified) = > 100 µM

TGI measured on Cc1cc(NCCCCCCNc2cc(C)nc3cc(N(C)C)ccc23)c2ccc(N(C)C)cc2n1 = > 100 µM

---

Exercise: for every item that follows, state its recorded TGI.
Test system: SK-MEL-2 melanoma
Experiment: NCI tumour cell line growth inhibition, 48 h

TGI measured on COc1cc2c(cc1OC)C(=O)/C(=C/c1ccc(Cl)cc1)CC2 = > 10 µM

TGI measured on Clc1cc(Cl)cc(C=NC23CC4CC(CC(C4)C2)C3)c1 = > 10 µM

TGI measured on CCCCCCC(=O)O[C@H]1CC[C@H]2[C@@H]3CCC4C/C(=N/NC(=O)c5cccc6c(=O)c7ccccc7[nH]c56)C=C(C)[C@]4(C)[C@H]3CC[C@]12C (stereo partly drawn) = > 25 µM
